- assayedTarget: 3β-OH-Δ^5-6-cholesterol-5β-reductase (5βChR); putative cholesterol dehydrogenase (Limosilactobacillus fermentum, UniProt A0ABF7R4H0, S139A)
- Sequence (A0ABF7R4H0 1-249 S139A): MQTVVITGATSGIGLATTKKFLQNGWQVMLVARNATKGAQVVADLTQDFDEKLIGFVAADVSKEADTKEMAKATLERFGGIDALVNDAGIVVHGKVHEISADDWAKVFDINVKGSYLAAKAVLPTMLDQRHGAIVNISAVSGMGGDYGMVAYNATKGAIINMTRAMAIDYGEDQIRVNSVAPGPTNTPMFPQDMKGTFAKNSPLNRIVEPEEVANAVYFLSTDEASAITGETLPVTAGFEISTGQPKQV
- testDetails: isothermal titration calorimetry
- conditionLabel: catalytic tetrad mutant
readoutLabel: Kd
Just so you know, I need the unit written after the number.

Q. // Kd lookup, key: CC(C)CCC[C@@H](C)[C@H]1CC[C@H]2[C@@H]3CC=C4C[C@@H](O)CC[C@]4(C)[C@H]3CC[C@]12C
A. 24.8 µM
